Test Target: P2Y purinoceptor 11 (Homo sapiens) (UniProt Q96G91)
Sequence (Q96G91 whole entry): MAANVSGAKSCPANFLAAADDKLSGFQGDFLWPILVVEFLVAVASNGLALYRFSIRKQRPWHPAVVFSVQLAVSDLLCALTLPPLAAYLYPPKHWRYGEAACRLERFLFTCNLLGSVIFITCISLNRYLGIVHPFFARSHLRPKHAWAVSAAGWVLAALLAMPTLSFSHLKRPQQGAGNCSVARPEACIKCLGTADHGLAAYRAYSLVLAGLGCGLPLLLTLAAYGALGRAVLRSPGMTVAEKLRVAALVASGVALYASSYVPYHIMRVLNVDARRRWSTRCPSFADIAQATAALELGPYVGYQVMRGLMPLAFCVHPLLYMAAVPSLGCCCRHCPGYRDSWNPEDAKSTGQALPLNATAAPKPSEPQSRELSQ
Measurement Protocol: Percent inhibition of agonist-induced calcium mobilization at P2Y purinoceptor 11 recombinantly expressed in human 1321N1 astrocytoma cells at 100 uM dose
Observable: inhibition (%)

(I) COCc1ccc(C(=O)Nc2ccc(S(=O)(=O)O)c3cc(S(=O)(=O)O)cc(S(=O)(=O)O)c23)cc1NC(=O)Nc1cc(C(=O)Nc2ccc(S(=O)(=O)O)c3cc(S(=O)(=O)O)cc(S(=O)(=O)O)c23)ccc1COC
(II) O=C(Nc1cccc(C(=O)Nc2cc(C(=O)Nc3ccc(S(=O)(=O)O)c4cc(S(=O)(=O)O)cc(S(=O)(=O)O)c34)ccc2F)c1)Nc1cccc(C(=O)Nc2cc(C(=O)Nc3ccc(S(=O)(=O)O)c4cc(S(=O)(=O)O)cc(S(=O)(=O)O)c34)ccc2F)c1
Asked: Which item exceeds the other in inhibition, I or II ? Answer by stating the label of the chosen item.
Given back: II
(II: 96.6%, I: 23.8%)

(1) O=C(Nc1cc(C(=O)Nc2ccc(S(=O)(=O)O)c3cc(S(=O)(=O)O)cc(S(=O)(=O)O)c23)ccc1Cl)Nc1cc(C(=O)Nc2ccc(S(=O)(=O)O)c3cc(S(=O)(=O)O)cc(S(=O)(=O)O)c23)ccc1Cl
(2) CC(C)c1ccc(C(=O)Nc2ccc(S(=O)(=O)O)c3cc(S(=O)(=O)O)cc(S(=O)(=O)O)c23)cc1NC(=O)Nc1cc(C(=O)Nc2ccc(S(=O)(=O)O)c3cc(S(=O)(=O)O)cc(S(=O)(=O)O)c23)ccc1C(C)C
(3) O=C(Nc1cc(C(=O)Nc2ccc(S(=O)(=O)O)c3cc(S(=O)(=O)O)cc(S(=O)(=O)O)c23)ccc1-c1ccccc1)Nc1cc(C(=O)Nc2ccc(S(=O)(=O)O)c3cc(S(=O)(=O)O)cc(S(=O)(=O)O)c23)ccc1-c1ccccc1
Asked: Rank ascending by inhibition. // ordering of labels required in reply
Given back: 2, 3, 1
(2: 23.2%, 3: 35.9%, 1: 59%)

====

Test Target: P2Y purinoceptor 1 (Homo sapiens, UniProt P47900)
Sequence (P47900 whole entry): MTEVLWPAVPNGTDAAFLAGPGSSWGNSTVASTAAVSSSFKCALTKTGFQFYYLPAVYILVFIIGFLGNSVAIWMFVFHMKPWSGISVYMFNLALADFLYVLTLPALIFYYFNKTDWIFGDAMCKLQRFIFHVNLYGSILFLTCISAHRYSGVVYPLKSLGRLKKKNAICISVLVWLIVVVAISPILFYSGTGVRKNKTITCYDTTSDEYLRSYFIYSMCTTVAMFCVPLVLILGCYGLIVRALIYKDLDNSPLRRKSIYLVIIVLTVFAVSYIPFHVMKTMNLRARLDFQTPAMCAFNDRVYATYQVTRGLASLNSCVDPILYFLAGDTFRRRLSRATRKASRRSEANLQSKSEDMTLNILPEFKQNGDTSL
Measurement Protocol: Percent inhibition of agonist-induced calcium mobilization at P2Y purinoceptor 1 recombinantly expressed in human HEK293 cells at 100 uM dose
Type: functional, cell-based
Test Settings: in the assay text read “native in” for “recombinantly expressed in”
Observable: inhibition (%)

Recorded inhibition, per entry:
* COCc1ccc(C(=O)Nc2ccc(S(=O)(=O)O)c3cc(S(=O)(=O)O)cc(S(=O)(=O)O)c23)cc1NC(=O)c1cccc(NC(=O)Nc2cccc(C(=O)Nc3cc(C(=O)Nc4ccc(S(=O)(=O)O)c5cc(S(=O)(=O)O)cc(S(=O)(=O)O)c45)ccc3COC)c2)c1 | 47.5
* O=C(Nc1cccc(C(=O)Nc2cc(C(=O)Nc3ccc(S(=O)(=O)O)c4cc(S(=O)(=O)O)cc(S(=O)(=O)O)c34)ccc2F)c1)Nc1cccc(C(=O)Nc2cc(C(=O)Nc3ccc(S(=O)(=O)O)c4cc(S(=O)(=O)O)cc(S(=O)(=O)O)c34)ccc2F)c1 | 63.3
* Cc1ccc(C(=O)Nc2ccc(S(=O)(=O)O)c3cc(S(=O)(=O)O)cc(S(=O)(=O)O)c23)cc1NC(=O)Nc1cc(C(=O)Nc2ccc(S(=O)(=O)O)c3cc(S(=O)(=O)O)cc(S(=O)(=O)O)c23)ccc1C | 0
* Cc1ccc(C(=O)Nc2ccc(S(=O)(=O)O)c3cc(S(=O)(=O)O)cc(S(=O)(=O)O)c23)cc1NC(=O)c1cccc(NC(=O)Nc2cccc(C(=O)Nc3cc(C(=O)Nc4ccc(S(=O)(=O)O)c5cc(S(=O)(=O)O)cc(S(=O)(=O)O)c45)ccc3C)c2)c1 [SURAMIN] | 54.5
* COCc1ccc(C(=O)Nc2ccc(S(=O)(=O)O)c3cc(S(=O)(=O)O)cc(S(=O)(=O)O)c23)cc1NC(=O)Nc1cc(C(=O)Nc2ccc(S(=O)(=O)O)c3cc(S(=O)(=O)O)cc(S(=O)(=O)O)c23)ccc1COC | 31.7

(1) COc1ccc(C(=O)Nc2ccc(S(=O)(=O)O)c3cc(S(=O)(=O)O)cc(S(=O)(=O)O)c23)cc1NC(=O)Nc1cc(C(=O)Nc2ccc(S(=O)(=O)O)c3cc(S(=O)(=O)O)cc(S(=O)(=O)O)c23)ccc1OC
(2) O=C(Nc1cccc(C(=O)Nc2cc(C(=O)Nc3ccc(S(=O)(=O)O)c4cc(S(=O)(=O)O)cc(S(=O)(=O)O)c34)ccc2-c2ccccc2)c1)Nc1cccc(C(=O)Nc2cc(C(=O)Nc3ccc(S(=O)(=O)O)c4cc(S(=O)(=O)O)cc(S(=O)(=O)O)c34)ccc2-c2ccccc2)c1
Asked: Hi team, can someone confirm which has the larger inhibition: 1 or 2 ? Thanks. Answer by stating the label of the chosen item.
Given back: 2

(1) CCc1ccc(C(=O)Nc2ccc(S(=O)(=O)O)c3cc(S(=O)(=O)O)cc(S(=O)(=O)O)c23)cc1NC(=O)c1cccc(NC(=O)Nc2cccc(C(=O)Nc3cc(C(=O)Nc4ccc(S(=O)(=O)O)c5cc(S(=O)(=O)O)cc(S(=O)(=O)O)c45)ccc3CC)c2)c1
(2) O=C(Nc1cccc(C(=O)Nc2ccc(S(=O)(=O)O)c3cc(S(=O)(=O)O)cc(S(=O)(=O)O)c23)c1)Nc1cccc(C(=O)Nc2ccc(S(=O)(=O)O)c3cc(S(=O)(=O)O)cc(S(=O)(=O)O)c23)c1
Asked: Of 1 versus 2 , which is the one with smaller reported inhibition? Let me know the label of the one you choose.
Given back: 2
